src = patent US20050154189A1

// reported Binding Score per item
- experimental_target: T1, Soluble CD28-Ig (human, UniProt P10747 19-152, biotin-conjugated (NHS-biotin) in the labelled-ligand FACS assays)
- T1 construct: extracellular domain; Bought from R&D Systems; also called sCD28-Ig; CD28-Ig Fc; not shown: Fc portion of human IgG1
- assay_details: two-colour FACS profile on transfected cells; score of preference for CD28-Ig over CTLA-4-Ig vs WT hB7-1
Lab note: record the figure alone, no unit after it.

Example cases with answers are listed next.
>>> assay_result("Round 2 CD28B4-3 (ligand) ITPKSVTKRVKETVMLSCDYNTSTEELTSLRIYWQKDSKMVLAILPGKVQVWPEYKNRTITDMNDNPRIVILALRLSDSGTYTCVIQKPVLKGAYKLEHLTSVRLMIRADFPVPTINDLGNPSPNIRRLICSTSGGFPRPHLYWLENGEELNATNTTLSQDPETKLYMISSELDFNMTSNHSFLCLVKYGDLTVSQTFYWQESKPTPSANQHLTWTIIIPVSAFGISVIIAVILTCLTCRNAAIRRQRRENEVEMQSCSQSP")
1
>>> assay_result("Round 2 CD28E9-6 (ligand) ITPKSVTKRVKETVMLSCDYNTSTEELTSLRIYWQKDSKMVLAILPGKVQVWPEYKNRTITDMNDNPRIVILALRLSDKGTYTCVIQKPDLKGAYKLEHLASVRLMIRADFPVPTINDLGNPSPNIRRLICSTSGGFPRPHLYWLENGEELNATNTTVSQDPGTELYMISSELDFNVTNNHSIVCLIKYGELSVSQIFPWSKPKQEPPIDQLPFWVIIPVSGALVLTAVVLYCLACRHVARWKRTRRNEETVGTERLSPIYLGSAQSSG")
0
>>> assay_result("Round 2 CD28BP-2 (ligand) ITPKSVTKRVKETVMLSCDYSTSTEELTSLRIYWQKDSKMVLAILPGKVQVWPEYKNRTITDMNDNPRIVILALRLSDSGTYTCVIQKPVLKGAYKLEHLASVRLMIRADFPVPTINDLGNPSPNIRRLICSTSGGFPRPHLYWLENGEELNATNTTLSQDPETKLYMISSELDFNVTNNHSIVCLIKYGELSVSQIFPWSKPKQEPPIDQLPFWVIIPVSGALVLTAVVLYRPACRHVARWKRTRRNEETVGTERLSPIYLGSAQSSG")
2
>>> assay_result("Round 2 CD28C7-3 (ligand) ITPKSVTKRVKETVMLSCDYSTSTEELTSLRIYWQKDSKMVLAILPGKVQVWPEYKNRTITDMNDNPRIVILALRLSDSGTYTCVIQKPDLKGAYKLEHLTSVRLMIRADFPVPSITDIGHPAPNVKRIRCSASGDFPEPRLAWMEDGEELNAVNTTVDQDLDTELYSVSSELDFNVTNNHSIVCLIKYGELSVSQIFPWSKPKQEPPIDQLPFWVIIPVSGALVLTAVVLYCLACRHVARWKRTRRNEETVGTERLSPIYLGSAQSSG")
1
>>> assay_result("Round 2 CD28E2-4 (ligand) ITPKSVTKRVKETVMLSCDYSTSTEELTSLRIYWQKDSKMVLAILPGKVQVWPEYKNRTITDMNDNPRIVILALRLSDKGTYTCVIQKPVLKGAYKLEHLASVRLMIRADFPVPTINDLGNPSPNIRRLICSTSGGFPRPHLYWLENGEELNATNTTVSQDPGTELYMISSELDFNVTNNHSIVCLIKYGELSVSQIFPWSKPKQEPPIDQLPFWVIIPVSGALVLTAVVLYCLACRHVARWKRTRRNEETVGTERLSPIYLGSAQSSG")
1
>>> assay_result("Round 2 CD28BP-5 (ligand) ITPKSVTKRVKETVMLSCDYSTSTEELTSLRIYWQKDSKMVLAILPGKVQVWPEYKNRTITDMNDNPRIVILALRLSDKGTYTCVVQKPVLKGAYKLEHLTSVRLMIRADFPVPTINDLGNPSPNIRRLICSTSGGFPRPHLYWLENGEELNATNTTVSQDPGTELYMISSELDFNVTNNHSIVCLIKYGELSVSQIFPWSKPKQEPPIDQLPFWVIIPVSGALVLTAVVLYCLACRHVARWKRTRRNEETVGTERLSPIYLGSAQSSG")
2
>>> assay_result("Round 2 CD28A2-5 (ligand) ITPKSVTKRVKETVMLSCDYNTSTEELTSLRIYWQKDSKMVLAILPGKVQVWPEYKNRTITDMNDNPRIVILALRLSDSGTYTCVIQKPDLKGAYKLEHLASVRLMIRADFPVPSITDIGHPAPNVKRIRCSASGGFPEPRLAWMEDGEELNAVNTTVDQDLDTELYSVSSELDFNMTSNHSFLCLVKYGDLTVSQTFYWQESKPTPSANQHLTWTIIIPVSAFGISVIIAVILTCLTCRNAAIRRQRRENEGKCKVLSVSIGTKLKFNR")
0
>>> assay_result("Round 2 CD28A6-1 (ligand) ITPKSVTKRVKETVMLSCDYNTSTEELTSLRIYWQKDSKMVLAILPGKVQVWPEYKNRTITDMNDNPRIVILALRLSDSGTYTCVIQKPVLKGAYKLEHLASVRLMIRADFPVPTINDLGNPSPNIRRLICSTSGGFPRPHLYWLENGEELNATNTTVSQDPETKLYMISSELDFNVTNNHSIVCLIKYGELSVSQIFPWSKPKQEPPIDQLPFRVIIPVSGALVLTAIVLYCLACRHVARWKRTRRNEETVGTERLSPIYLGSAQSSG")
1

Please look at the following binder next.
### Prompt Item under review: Round 2 CD28D12-5 (ligand) ITPKSVTKRVKETVMLSCDYSTSTEELTSLRIYWQKDSKMVLAILPGKVQVWPEYKNRTITDMNDNPRIVILALRLSDSGTYTCVIQKPVLKGAYKLEHLASVRLMIRADFPVPSITDIGHPAPNVKRIRCSASGDFPEPRLAWMEDGEELNAVNTTVLDTELYSVSSELDFNVTNNHSIVCLIKYGELSVSQIFPWSKPKQEPPIDQLPFWVIIPVSGALVLTAVVLYCLACRHVARWKRTRRNEETVGTERLSPIYLGSAQPSG . Reported Binding Score?
### Response 2
